Assay: Stability test of different crystal forms
Type: physicochemical
Conditions: Placed at RH 92.5% for 10 days

compound | Trait
CCc1cc2c(N3CCC(C)(OC)CC3)c(C#N)c(=O)[nH]c2cn1 [Crystal form IV] | Yellow powder
CCc1cc2c(N3CCC(C)(OC)CC3)c(C#N)c(=O)[nH]c2cn1 [Crystal form I] | Yellow powder
CCc1cc2c(N3CCC(C)(OC)CC3)c(C#N)c(=O)[nH]c2cn1 [Crystal form II] | Yellow powder
CCc1cc2c(N3CCC(C)(OC)CC3)c(C#N)c(=O)[nH]c2cn1 [Crystal form V] | Yellow powder

---

Test: Pharmacokinetic evaluation in rats
Assay type: in vivo, male SD rats
Settings: Sprague-Dawley, rat, plasma, po; male SD rats, gavage 5.0 mg/kg
readout label: Tmax (min)

molecular string | readout label | unit spec | measured result
CCc1cc2c(N3CCC(C)(OC)CC3)c(C#N)c(=O)[nH]c2cn1 | Tmax | min | 30
